Cited source: patent US9018224B2

EXPERIMENTAL TARGET: human GPR119 (Homo sapiens, UniProt Q8TDV5)
Sequence (Q8TDV5 1-308 limits assumed): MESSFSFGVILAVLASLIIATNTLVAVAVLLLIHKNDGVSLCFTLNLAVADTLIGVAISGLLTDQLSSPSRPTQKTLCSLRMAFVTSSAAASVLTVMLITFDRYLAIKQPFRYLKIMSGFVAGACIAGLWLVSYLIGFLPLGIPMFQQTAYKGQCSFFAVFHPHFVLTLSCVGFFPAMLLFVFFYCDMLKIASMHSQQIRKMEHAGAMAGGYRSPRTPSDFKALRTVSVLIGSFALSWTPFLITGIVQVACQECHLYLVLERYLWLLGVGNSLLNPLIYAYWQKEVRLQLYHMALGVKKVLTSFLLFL
TEST SUMMARY: Measurement of GPR119 signaling by cAMP (LANCE cAMP kit or HTRF) in HEK293 cells transfected with human GPR119
PARTICULARS: agonist cAMP response in HEK293 cells stably transfected with human GPR119; patent does not say which of the two cAMP formats (LANCE or HTRF)
VALUE TYPE: EC50 (nM)

SMILES RECORD: CCc1cnc(N2CCC([C@H]3C[C@H]3CCOc3ccc(CC(=O)NC4CC4)c(F)c3)CC2)nc1
VALUE TYPE: EC50
ENDPOINT RESULT: 1.9

SMILES RECORD: Cc1cnc(Cc2ccc(OCC[C@@H]3C[C@@H]3C3CCN(c4ncc(Cl)cn4)CC3)cc2F)o1
VALUE TYPE: EC50
ENDPOINT RESULT: 2.5

SMILES RECORD: COCc1cnc(N2CCC([C@H]3C[C@H]3CCOc3ccc(CC(=O)N4CC(C)(C)C4)cc3)CC2)nc1
VALUE TYPE: EC50
ENDPOINT RESULT: 5.2

[a] CC1CN(C(=O)Cc2ccc(OCC[C@@H]3C[C@@H]3C3CCN(c4ncc(Cl)cn4)CC3)cc2F)C1
[b] COCc1cnc(N2CCC([C@H]3C[C@H]3CCOc3ccc(CC(=O)N4CCn5cnnc5C4)c(F)c3)CC2)nc1
[c] COCc1cnc(N2CCC([C@H]3C[C@H]3CCOc3cc(F)c(CC(=O)N4CC(C)(O)C4)c(F)c3)CC2)nc1
[d] COC1CN(C(=O)Cc2ccc(OCC[C@@H]3C[C@@H]3C3CCN(c4ncc(Cl)cn4)CC3)cc2F)C1
hey, can you rank those molecules up there by EC50? biggest number first please Output spec: a listing of the labels in the requested order.
b, c, a, d
